Attribution: patent US20200347130A1

Molecular target: T1, Biotinylated CD96 antigen (human, UniProt P40200-2 22-503, limits assumed, biotinylated)
T1 sequence (looked up): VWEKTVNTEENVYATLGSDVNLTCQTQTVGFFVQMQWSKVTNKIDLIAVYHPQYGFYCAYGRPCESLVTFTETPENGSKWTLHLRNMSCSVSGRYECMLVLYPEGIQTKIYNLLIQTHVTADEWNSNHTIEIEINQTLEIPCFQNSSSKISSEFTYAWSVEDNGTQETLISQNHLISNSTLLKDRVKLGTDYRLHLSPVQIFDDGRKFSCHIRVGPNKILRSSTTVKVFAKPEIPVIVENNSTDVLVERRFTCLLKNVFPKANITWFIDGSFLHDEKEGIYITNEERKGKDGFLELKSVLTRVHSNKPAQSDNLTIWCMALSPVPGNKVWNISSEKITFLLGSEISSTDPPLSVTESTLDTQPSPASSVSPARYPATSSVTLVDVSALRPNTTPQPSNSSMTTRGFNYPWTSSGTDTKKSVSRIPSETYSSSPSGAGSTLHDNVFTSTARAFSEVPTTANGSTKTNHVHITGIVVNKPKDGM
Test: competition ELISA, antibody B premixed with biotinylated CD96; competitor (coated antibody A): h1719-014
metric: competition (percent) (%)
Write the number in % without appending the unit.

According to the records, this binder h1719-014 (antibody, V domains shown, Only variable regions are tied to this name; also called M719-014) VH: EVTLKESGPVLVKPTETLTLTCTVSGFSLSSYGVSWVRQPPGKGLEWLGVIWGDGNTNYHSVLISRLTISKDTSKSQVVLTLTNMDPVDTATYYCAKNYYYGSRYGYPLDYWGQGTTVTVSS VL: DIQMTQSPSSVSASVGDRVTITCKATQDVGTAVAWYQQKPGKSPKLLIYWASTRHTGVPERFSGSGSGTDFTLTISSLQPEDFATYFCQQYGSSVLTFGGGTKVEIK displays competition (percent) of 100
